Can you tell me Population Tubulin-Different-Phenotype (%) for the items I'm about to list?
System: Fibroblast
methodSummary: Multiplex assay against human fibroblast
Type: toxicity, cell-based
studyConditions: 12 h, 10 µM, compound concentration 10 uM, replicate 1
The figure you give is taken to be in %; do not add the unit.

Sure, the documented Population Tubulin-Different-Phenotype (%) for Cc1ccc(S(=O)(=O)NC2c3ccccc3Oc3ccccc32)cc1 is 17

Sure, the documented Population Tubulin-Different-Phenotype (%) for CCCCN(CC)c1nc(C)nc2c1c(C)cn2-c1c(C)cc(C)cc1C.Cl is 84

Sure, the documented Population Tubulin-Different-Phenotype (%) for NC(=O)c1ccc2nc(-c3ccc(C4(N)CCC4)cc3)c(-c3ccccc3)n2n1 is 2

Sure, the documented Population Tubulin-Different-Phenotype (%) for N#CCNC(=O)c1ccc(-c2ccnc(Nc3ccc(N4CCOCC4)cc3)n2)cc1 is 45

Sure, the documented Population Tubulin-Different-Phenotype (%) for CC[C@H](Nc1ncnc2[nH]cnc12)c1nc2cccc(F)c2c(=O)n1-c1ccccc1 is 4

Sure, the documented Population Tubulin-Different-Phenotype (%) for Cc1c(P(=S)(c2ccccc2)c2ccccc2)n2ccccc2[n+]1C/C=C/c1ccccc1.[Br-] is 88

Sure, the documented Population Tubulin-Different-Phenotype (%) for CC[C@@]1(O)C(=O)OCc2c1cc1n(c2=O)Cc2cc3ccccc3nc2-1 is 9

Sure, the documented Population Tubulin-Different-Phenotype (%) for C[C@@H](Oc1cc(-n2cnc3ccc(CN4CCN(C)CC4)cc32)sc1C(N)=O)c1ccccc1C(F)(F)F is 90

Sure, the documented Population Tubulin-Different-Phenotype (%) for c1ccc(-c2oc3ncnc(NC[C@@H]4CCCO4)c3c2-c2ccccc2)cc1 is 84

Sure, the documented Population Tubulin-Different-Phenotype (%) for C=CC(=O)Nc1cc(-n2c(=O)ccc3cnc4ccc(-c5ccc(NS(C)(=O)=O)cc5)cc4c32)ccc1C is 55

* * *

Can you tell me Population Tubulin-Different-Phenotype (%) for the items I'm about to list?
Test system: HEK-293T
methodSummary: Multiplex assay against HEK293T;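 also: share of the cells with healthy nuclei that show this phenotype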
Format: toxicity, cell-based
studyConditions: human, 12 h, 1 µM, compound concentration 1 uM, replicate 2
The figure you give is taken to be in %; do not add the unit.

Sure, the documented Population Tubulin-Different-Phenotype (%) for CC(C)c1cc(Nc2nc(N3CCC[C@H](N)C3)ncc2C(N)=O)cc(C(C)C)n1 is 97

Sure, the documented Population Tubulin-Different-Phenotype (%) for Cc1c(P(=S)(c2ccccc2)c2ccccc2)n2ccccc2[n+]1C/C=C/c1ccccc1.[Br-] is 77

Sure, the documented Population Tubulin-Different-Phenotype (%) for CCOC(=O)CCNc1cc(N2CCc3ccccc3CC2)nc(-c2ccccn2)n1 is 5

Sure, the documented Population Tubulin-Different-Phenotype (%) for Cc1ccc(NC(=O)Nc2cc(C(F)(F)F)ccc2F)cc1Nc1ccc2c(c1)NC(=O)/C2=C\c1ccc[nH]1 is 50

Sure, the documented Population Tubulin-Different-Phenotype (%) for CCOc1ccn(-c2ccc(F)cc2)c(=O)c1C(=O)Nc1ccc(Oc2ccnc(N)c2Cl)c(F)c1 is 48

Sure, the documented Population Tubulin-Different-Phenotype (%) for CCCCCNC(=N)N/N=C/c1c[nH]c2ccc(OC)cc12.O=C(O)/C=C\C(=O)O [TEGASEROD MALEATE] is 48

Sure, the documented Population Tubulin-Different-Phenotype (%) for Oc1cccc(-c2nc(N3CCOCC3)c3oc4ncccc4c3n2)c1 is 63

Values compiled from ChEMBL document CHEMBL4689842.
